testTarget: KSP ATPase (Homo sapiens, UniProt P52732)
Sequence (P52732 1-1056): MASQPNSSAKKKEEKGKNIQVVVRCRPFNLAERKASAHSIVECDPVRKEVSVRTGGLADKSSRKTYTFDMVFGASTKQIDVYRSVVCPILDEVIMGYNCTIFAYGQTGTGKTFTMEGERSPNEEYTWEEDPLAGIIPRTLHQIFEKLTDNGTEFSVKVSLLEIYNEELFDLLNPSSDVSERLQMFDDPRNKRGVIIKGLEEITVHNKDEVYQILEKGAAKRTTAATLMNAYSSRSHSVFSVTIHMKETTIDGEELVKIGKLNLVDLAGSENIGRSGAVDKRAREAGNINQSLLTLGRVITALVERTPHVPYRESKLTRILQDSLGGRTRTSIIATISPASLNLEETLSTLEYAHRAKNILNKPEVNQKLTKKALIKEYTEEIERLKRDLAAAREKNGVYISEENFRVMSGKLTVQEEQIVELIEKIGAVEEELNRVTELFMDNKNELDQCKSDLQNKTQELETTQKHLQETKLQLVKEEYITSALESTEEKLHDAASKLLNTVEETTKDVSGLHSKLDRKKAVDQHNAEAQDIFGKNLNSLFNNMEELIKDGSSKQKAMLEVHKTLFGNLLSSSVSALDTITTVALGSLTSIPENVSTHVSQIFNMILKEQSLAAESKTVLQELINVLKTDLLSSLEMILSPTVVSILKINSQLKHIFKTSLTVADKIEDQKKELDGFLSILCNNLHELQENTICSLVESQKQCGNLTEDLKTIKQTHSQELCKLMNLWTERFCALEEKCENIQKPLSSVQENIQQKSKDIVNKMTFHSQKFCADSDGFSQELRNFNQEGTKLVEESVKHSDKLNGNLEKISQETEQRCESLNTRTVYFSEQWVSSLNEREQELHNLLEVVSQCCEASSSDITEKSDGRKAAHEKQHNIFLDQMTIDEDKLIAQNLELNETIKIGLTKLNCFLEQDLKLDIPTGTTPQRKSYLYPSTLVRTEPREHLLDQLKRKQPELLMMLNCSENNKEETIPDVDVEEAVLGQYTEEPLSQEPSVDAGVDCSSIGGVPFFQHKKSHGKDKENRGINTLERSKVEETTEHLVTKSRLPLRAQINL
assayDetails: Microtubule-activated KSP ATPase kinetic assay
Field 'label' (enum: MET / NOT MET). Set to MET when IC50 is strictly under 0.08 µM; else NOT MET.

INSERT INTO assay_data (givensmiles, categorylabel) VALUES
  ('O=c1c2cc(Cl)ccc2nc(SCc2ccc(F)cc2)n1-c1ccc(F)cc1', 'MET'),
  ('O=c1c2cc(Cl)ccc2nc(SCc2ccc(Br)cc2F)n1-c1ccc(F)cc1', 'MET'),
  ('O=c1c2cc(Cl)ccc2nc(SCc2cc(C(F)(F)F)cc(C(F)(F)F)c2)n1-c1ccc(F)cc1', 'MET'),
  ('CCSc1nc2ccc(Cl)cc2c(=O)n1-c1ccc(F)cc1', 'NOT MET'),
  ('CC(C)=CCSc1nc2ccc(Cl)cc2c(=O)n1-c1ccc(F)cc1', 'NOT MET');

----------
pIC50: −log10 of the molar value.
Test system UniProtKB O00329, pIC50 listed for each of the compounds.
Sequence (O00329 whole entry): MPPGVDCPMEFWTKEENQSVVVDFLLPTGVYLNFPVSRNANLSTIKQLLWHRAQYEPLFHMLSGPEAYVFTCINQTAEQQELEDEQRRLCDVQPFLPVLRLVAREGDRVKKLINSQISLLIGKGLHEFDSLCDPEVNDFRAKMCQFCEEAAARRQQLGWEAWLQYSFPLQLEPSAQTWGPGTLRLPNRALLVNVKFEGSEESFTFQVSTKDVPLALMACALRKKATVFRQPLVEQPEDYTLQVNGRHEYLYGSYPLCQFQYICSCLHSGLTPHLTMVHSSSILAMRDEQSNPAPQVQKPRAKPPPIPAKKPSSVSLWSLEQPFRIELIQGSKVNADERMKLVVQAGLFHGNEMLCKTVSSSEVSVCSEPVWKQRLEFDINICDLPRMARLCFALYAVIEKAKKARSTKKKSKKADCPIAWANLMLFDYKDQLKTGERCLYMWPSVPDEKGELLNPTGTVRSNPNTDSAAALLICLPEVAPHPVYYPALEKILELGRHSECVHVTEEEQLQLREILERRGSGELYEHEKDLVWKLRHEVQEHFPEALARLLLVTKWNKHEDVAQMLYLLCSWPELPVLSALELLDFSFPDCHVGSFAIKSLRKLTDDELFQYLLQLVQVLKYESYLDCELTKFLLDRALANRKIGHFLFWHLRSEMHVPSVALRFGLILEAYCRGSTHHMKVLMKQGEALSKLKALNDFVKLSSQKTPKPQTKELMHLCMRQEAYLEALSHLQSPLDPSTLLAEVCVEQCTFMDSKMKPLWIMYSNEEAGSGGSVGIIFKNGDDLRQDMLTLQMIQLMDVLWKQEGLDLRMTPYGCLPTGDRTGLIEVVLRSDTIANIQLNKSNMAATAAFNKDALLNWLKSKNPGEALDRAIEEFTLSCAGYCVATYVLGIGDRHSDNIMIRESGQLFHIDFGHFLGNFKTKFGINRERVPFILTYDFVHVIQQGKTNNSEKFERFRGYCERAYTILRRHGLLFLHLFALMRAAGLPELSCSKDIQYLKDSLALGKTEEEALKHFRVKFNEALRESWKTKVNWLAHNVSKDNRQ
Sequence (P27986 whole entry partner): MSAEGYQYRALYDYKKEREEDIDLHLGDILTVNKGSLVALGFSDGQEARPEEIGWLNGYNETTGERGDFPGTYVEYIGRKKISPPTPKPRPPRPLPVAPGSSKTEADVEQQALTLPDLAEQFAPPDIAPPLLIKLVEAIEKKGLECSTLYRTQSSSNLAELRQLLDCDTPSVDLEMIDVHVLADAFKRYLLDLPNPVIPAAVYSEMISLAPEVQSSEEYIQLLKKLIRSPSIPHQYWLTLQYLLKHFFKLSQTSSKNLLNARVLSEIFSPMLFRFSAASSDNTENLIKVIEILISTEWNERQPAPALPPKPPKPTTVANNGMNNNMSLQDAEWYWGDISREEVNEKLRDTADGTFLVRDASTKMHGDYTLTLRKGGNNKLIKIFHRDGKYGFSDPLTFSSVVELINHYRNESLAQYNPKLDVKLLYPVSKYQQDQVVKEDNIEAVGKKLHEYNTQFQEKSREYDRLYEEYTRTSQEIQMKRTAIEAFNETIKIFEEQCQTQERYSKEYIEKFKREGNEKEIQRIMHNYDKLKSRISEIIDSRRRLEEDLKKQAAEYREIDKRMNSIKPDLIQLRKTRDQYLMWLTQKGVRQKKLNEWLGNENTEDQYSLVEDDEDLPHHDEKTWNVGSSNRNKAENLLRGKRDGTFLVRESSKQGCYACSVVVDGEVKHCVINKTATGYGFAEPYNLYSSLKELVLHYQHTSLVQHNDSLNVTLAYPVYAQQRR
valueKind: pIC50

INSERT INTO measurements (givensmiles, valuekind, observedresult) VALUES
  ('O=c1c2cc(Cl)ccc2nc(SCc2ccc(Br)cc2F)n1-c1ccc(F)cc1', 'pIC50', 7.27),
  ('CCSc1nc2ccc(Cl)cc2c(=O)n1-c1ccc(F)cc1', 'pIC50', 7.42),
  ('O=c1c2cc(Cl)ccc2nc(SCc2ccc(F)cc2)n1-c1ccc(F)cc1', 'pIC50', 7.34),
  ('CC(C)=CCSc1nc2ccc(Cl)cc2c(=O)n1-c1ccc(F)cc1', 'pIC50', 7.49),
  ('O=c1c2cc(Cl)ccc2nc(SCc2cc(C(F)(F)F)cc(C(F)(F)F)c2)n1-c1ccc(F)cc1', 'pIC50', 7.24);
